system_name: T1, human Trop2 on cells (human, UniProt P09758 27-323)
T1 construct: whole, on cells; also called hTrop2; 293T-human Trop2 cells
T1 sequence (looked up): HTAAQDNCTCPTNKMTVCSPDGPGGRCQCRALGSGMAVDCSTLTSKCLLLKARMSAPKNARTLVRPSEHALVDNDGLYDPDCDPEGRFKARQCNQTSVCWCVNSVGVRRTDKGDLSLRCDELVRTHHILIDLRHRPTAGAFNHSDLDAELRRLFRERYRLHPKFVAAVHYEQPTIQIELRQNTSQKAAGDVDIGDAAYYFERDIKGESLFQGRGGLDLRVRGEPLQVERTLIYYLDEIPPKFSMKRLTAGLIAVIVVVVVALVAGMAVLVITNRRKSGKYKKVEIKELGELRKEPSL
experiment_notes: flow cytometry on 293T-human Trop2 cells
Listed here: items and their measured EC50.
Report the value in nM with no unit label.

[
  {
    "binder": "PR001155 (antibody, human IgG1, kappa, V domains shown, fully human IgG1/kappa; also called antibody No. (18)) VH: QVQLVQSGGGVVQPGRSLRLSCAASGFTFSHYGMHWVRQAPGKGLEWVAVIWYDGIKKYYVESVKGRFTISRDNSKNTLYLQMNRLRAEDTAVYYCARDGGFGELNYYGLDVWGQGTTVTVSS VL: DIQLTQSPSFLSASVGDRVTITCRASQGISSYLGWYQQKPGKAPKLLIYVASTLQSGVPSRFSGSGSGTEFTLTISSLQPEDFATYYCQQLNSYPYTFGQGTKLEIKR",
    "EC50, nM": 2.54
  },
  {
    "binder": "PR001133 (antibody, human IgG1, kappa, V domains shown, fully human IgG1/kappa; also called antibody No. (5)) VH: QVNLVESGGGVVQPGRSLKLSCAASGFTFSSYGMHWVRQAPGKGLEWVALIWSDGTNRYYTESVKGRFTISRDNSKNTLSLQMKSLRAEDTAVYYCAKDGWGTYGEYFQHWGQGTLVTVSS VL: DIQMTQSPSSLSASVGDRVTITCRASQNINSYLHWYQQKPGKAPKLLIYAASSLQSGVPSRFSGSGSGTDFTLTISSLQPEDFAIYYCQQSYSIPPITFGQGTRLEIKR",
    "EC50, nM": 0.995
  }
]

Moving on to the next binder.
Entry under test: PR001168 (antibody, human IgG1, kappa, V domains shown, fully human IgG1/kappa; also called antibody No. (28)) VH: QVQLVESGGGVVQPGRSLRLSCATSGFIFSSYGMHWVRQAPGKGLDWVAVIWYDGSNKYYADSVKGRFTISRDNSKNTLYLQMNSLRVEDTAVYYCARETSSWYVGYLQHWGQGTLVTVSS VL: EIVMTQSPATLSVSPGERVSLSCRASQSVNGNVAWYQQKPGQAPRLLIYAASTRATGIPARFSGSGSGTESTLTISSLQSEDCAVYYCQQYNNWPSTFGPGTKLEVTR . Its EC50 was 0.669
